Value source: PubChem BioAssay (NCATS)

test: Cell Viability - LYMP2-014 (AID 983); conditions: LYMP2-014 lymphoblastoid cells, viability qHTS; series mostly up to 92.2 µM;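 note: cells exposed to compound for 24 h at 37 °C; nearly all actives have a fitted effect of over 50% in size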
Inconclusive results are not listed. The source made the active and inactive calls. Calls come from the whole dose curve; as a rule, active = well fitted cell-killing curve with a large enough effect; inconclusive = small, poorly fitted or top-dose-only effect; inactive = flat fitted curve, though single readings scatter.
measured quantity: outcome

As a guide, the following entries are already answered.
> print(dat)
                               compound    result
1                             ClC(Cl)Cl  inactive
2                      C/C=C/C=C/C(=O)O  inactive
3                           Cc1ncc[nH]1  inactive
4                            CCOC(C)OCC  inactive
5                              OCC(O)CO  inactive
6  CC1=CCC2CC1C2(C)C (stereo not given)  inactive
7          [O-][N+](=Nc1ccccc1)c1ccccc1  inactive
8                              Nc1nccs1  inactive

// returns reported outcome for input Nc1ccc(N=Nc2ccccc2)c(N)n1 inactive

Value lookup for outcome; key = Oc1cccc(O)c1O inactive

Request the reported outcome associated with CC1=CC(=O)NS(=O)(=O)O1 inactive

Would you mind telling me what outcome value was observed for C[C@H](CCC(=O)O)[C@H]1CC[C@H]2[C@@H]3[C@H](O)C[C@@H]4C[C@H](O)CC[C@]4(C)[C@H]3C[C@H](O)[C@]12C ? inactive

Quick one: outcome for OCl ? inactive

Query (compound): COC(=O)c1ccccc1O ; field requested: outcome inactive

Give its outcome value. Item: CO inactive
